Origin of the recorded values: patent US20190040149A1

Could you please report measured Kd for the items listed next?
Biological target: T1, murine PD-1 (soluble antigen of the MSD assay) (mouse, UniProt Q02242 25-169, limits assumed)
T1 construct: also called mouse PD-1
T1 sequence: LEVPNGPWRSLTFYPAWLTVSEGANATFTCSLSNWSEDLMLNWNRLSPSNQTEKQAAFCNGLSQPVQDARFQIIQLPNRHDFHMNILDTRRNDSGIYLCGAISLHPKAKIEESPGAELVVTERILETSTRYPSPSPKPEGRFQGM
Assay: MSD solution equilibrium titration, avid KD
Answer with a number only, understood to be in nM.

Data request: Need Kd of Antibody F, IgG1 format expressed in yeast (antibody, V domains shown, Tested in IgG1 format, expressed in yeast) VH: QVQLVQSGAEVKKPGASVKVSCKASGYTFSAYYMHWVRQAPGQGLEWMGIINPDGGSTGYAQKFQGRVTMTRDTSTSTVYMELSSLRSEDTAVYYCAKEGVADGYGLVDVWGQGTMVTVSS VL: EIVLTQSPATLSLSPGERATLSCRASQSVSSYLAWYQQKPGQAPRLLIYDASKRATGIPARFSGSGSGTDFTLTISSLEPEDFAVYYCDQRNNWPLTFGGGTKVEIK , thanks.
Data returned: 0.44

Data request: GET /values?readout=Kd&item= Antibody E, IgG1 format expressed in yeast (antibody, V domains shown, Tested in IgG1 format, expressed in yeast) VH: QVQLVQSGAEVKKPGASVKVSCKASGYTFTSNYMHWVRQAPGQGLEWMGIINPSEGSTGYAQKFQGRVTMTRDTSTSTVYMELSSLRSEDTAVYYCAKEGVADGYGLVDVWGQGTMVTVSS VL: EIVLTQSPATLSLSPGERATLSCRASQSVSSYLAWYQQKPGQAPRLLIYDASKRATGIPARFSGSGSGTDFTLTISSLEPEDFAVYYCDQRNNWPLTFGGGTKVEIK
Data returned: 0.33

Data request: // returns reported Kd for input Antibody B, IgG1 format expressed in yeast (antibody, V domains shown, Tested in IgG1 format, expressed in yeast) VH: QVQLVQSGAEVKKPGASVKVSCKASGYTFEGYYMHWVRQAPGQGLEWMGIINPEGGETSYAQKFQGRVTMTRDTSISTAYMELSRLRSDDTAVYYCAKEGVADGYGLVDVWGQGTMVTVSS VL: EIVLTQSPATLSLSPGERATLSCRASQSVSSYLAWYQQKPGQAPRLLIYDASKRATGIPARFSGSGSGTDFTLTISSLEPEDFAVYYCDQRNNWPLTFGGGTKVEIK
Data returned: 0.38

Data request: Any idea what its Kd is? The binder is Antibody C, IgG1 format expressed in yeast (antibody, V domains shown, Tested in IgG1 format, expressed in yeast) VH: QVQLVQSGAEVKKPGASVKVSCKASGYTFTAQYMHWVRQAPGQGLEWMGIINPSGGETGYAQKFQGRVTMTRDTSTSTVYMELSSLRSEDTAVYYCAKEGVADGYGLVDVWGQGTMVTVSS VL: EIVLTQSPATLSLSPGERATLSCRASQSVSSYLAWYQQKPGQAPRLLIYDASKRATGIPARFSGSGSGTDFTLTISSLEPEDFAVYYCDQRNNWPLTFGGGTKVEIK
Data returned: 0.13
